Tested on: 3T3-L1 adipocytes
ASSAY_OVERVIEW: Detection of apoptosis (Apo-TRACE staining, microplate quantification)
Type: cell-based, murine
CONDITION_NOTES: 5 μM, 24 hrs

COMPOUND: CCCCNc1nc(Nc2ccc(CC(=O)NCCOCCOCCN)cc2)nc(N2CCCCC2)n1 [AP-IV-e3]
induction of apoptosis: induced apoptosis
--
COMPOUND: CCCCNc1nc(NCCc2ccccc2)nc(Nc2ccc(CC(=O)NCCOCCOCCN)cc2)n1 [AP-I-h7]
induction of apoptosis: did not induce apoptosis
--
COMPOUND: NCCOCCOCCNC(=O)Cc1ccc(Nc2nc(NCC3CCCCC3)nc(N3CCCCC3)n2)cc1 [AP-IV-e4]
induction of apoptosis: induced apoptosis
--
COMPOUND: NCCOCCOCCNC(=O)Cc1ccc(Nc2nc(NCc3ccc(F)cc3)nc(NCC3CCCCC3)n2)cc1 [AP-III-a4]
induction of apoptosis: did not induce apoptosis
